Provenance of the data: the supplement of paper PMC7877785

assay-text: self-splicing fitness, log relative to wild type (ln ratio); higher = more splicing; Tetrahymena group I intron in knt gene, E. coli kanamycin selection, DiMSum; sequences stand for … in CUCUCU…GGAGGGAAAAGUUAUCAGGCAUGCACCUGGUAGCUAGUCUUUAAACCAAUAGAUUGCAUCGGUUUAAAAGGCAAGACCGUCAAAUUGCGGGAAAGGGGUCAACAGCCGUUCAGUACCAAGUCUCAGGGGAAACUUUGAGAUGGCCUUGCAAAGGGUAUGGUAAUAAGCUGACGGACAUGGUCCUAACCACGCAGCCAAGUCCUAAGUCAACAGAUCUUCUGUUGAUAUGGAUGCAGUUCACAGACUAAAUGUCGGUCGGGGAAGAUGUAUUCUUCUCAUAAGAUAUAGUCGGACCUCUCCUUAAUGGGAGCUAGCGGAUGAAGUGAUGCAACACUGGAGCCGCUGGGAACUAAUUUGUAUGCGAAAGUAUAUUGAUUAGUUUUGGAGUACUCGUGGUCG;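 also: selection with 25 µg/mL kanamycin versus none on LB agar overnight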
protocol-conditions: 30 °C
recorded-metric: self-splicing fitness (ln)
The response must contain the number and no unit.

Observe how each entry below is paired with its result.
>  <biosequence>
AAUCAGCAAUAUUACGGUGG

>  <recorded-metric>
self-splicing fitness (ln)

>  <reported-value>
-1.14

$$$$
>  <biosequence>
GUGGAGCAAUAUUACGGUUG

>  <recorded-metric>
self-splicing fitness (ln)

>  <reported-value>
-3.04

$$$$
>  <biosequence>
AUGGAGCAAUAUUACGUGUA

>  <recorded-metric>
self-splicing fitness (ln)

>  <reported-value>
-3.43

$$$$
>  <biosequence>
AUCAAGCAAUAUUACGUAAC

>  <recorded-metric>
self-splicing fitness (ln)

>  <reported-value>
-2.98

$$$$

I have this sequence here, CGUGAGCAAUAUUACGGAUG , and I need its recorded self-splicing fitness (ln).
-1.55

UCACAGCAAUAUUACGCCCC , same question.
-0.433

Query GCCGAGCAAUAUUACGCACG next
-3.74

Now give it for CGCAAGCAAUAUUACGAUUC too.
-3.18

Also need CGCUAGCAAUAUUACGGACU , thanks.
-0.928

Would you mind doing GUGGAGCAAUAUUACGUGAG as well?
-2.1

One more sequence: AGUCAGCAAUAUUACGAAUU
-0.652

And then UUGGAGCAAUAUUACGUAGU , what is it?
-1.95

Please give the result for CCACAGCAAUAUUACGAGUG too.
-1.31

Please give the result for AGAGAGCAAUAUUACGCACU too.
-3.16

Thanks! And CUGGAGCAAUAUUACGAGGC ?
-2.02

Subsequent entry: ACUUAGCAAUAUUACGCUUU
-1.69

One more sequence: AAUAAGCAAUAUUACGGUUC
-2.72
